// data source = the RNAGym collection of RNA variant scans (doi:10.7554/elife.80360)

B1: HDV Ribozyme (parent)
chain: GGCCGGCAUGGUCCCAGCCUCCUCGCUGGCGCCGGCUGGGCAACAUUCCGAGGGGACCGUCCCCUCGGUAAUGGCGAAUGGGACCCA

Variants of: B1
Test: self-cleavage, relative activity (ratio to wild type); higher = more cleavage; co-transcriptional
metric: self-cleavage
Keep the answer to the number alone.

Per the records, this variant ( U47G C63G ) has self-cleavage equal to 0.415

Per the records, this variant ( C26G U46G ) has self-cleavage equal to 0.554

Per the records, this variant ( G38C U65G ) has self-cleavage equal to 0.142

Per the records, this variant ( U20G G67C ) has self-cleavage equal to 0.554

Per the records, this variant ( C4U A78C ) has self-cleavage equal to 0.0378

Per the records, this variant ( G2C C24G ) has self-cleavage equal to 0.0361

Per the records, this variant ( A42U U72G ) has self-cleavage equal to 0.322

Per the records, this variant ( G5U C7G ) has self-cleavage equal to 0.104

Per the records, this variant ( U12G C41U ) has self-cleavage equal to 0.982

Per the records, this variant ( C15A G76C ) has self-cleavage equal to 0.767

Per the records, this variant ( C36U G50A ) has self-cleavage equal to 0.673

Per the records, this variant ( G52A U60C ) has self-cleavage equal to 1.08

Per the records, this variant ( G55U C63A ) has self-cleavage equal to 0.783

Per the records, this variant ( U47C U60A ) has self-cleavage equal to 0.987

Per the records, this variant ( G73C A87G ) has self-cleavage equal to 0.454

Per the records, this variant ( C13U G40U ) has self-cleavage equal to 0.117

Per the records, this variant ( G10A G25A ) has self-cleavage equal to 0.126

Per the records, this variant ( A45G C48A ) has self-cleavage equal to 1.27

Per the records, this variant ( A45G C63A ) has self-cleavage equal to 0.872

Per the records, this variant ( A56C C85G ) has self-cleavage equal to 1.04

Per the records, this variant ( C4U G68C ) has self-cleavage equal to 0.635

Per the records, this variant ( C49A A51G ) has self-cleavage equal to 0.748

Per the records, this variant ( G50A U60A ) has self-cleavage equal to 0.776

Per the records, this variant ( C19G G28U ) has self-cleavage equal to 0.208

Per the records, this variant ( G2A G29A ) has self-cleavage equal to 0.0288

Per the records, this variant ( C33A G68A ) has self-cleavage equal to 0.157

Per the records, this variant ( C30U C58U ) has self-cleavage equal to 0.743

Per the records, this variant ( G2U C18A ) has self-cleavage equal to 0

Per the records, this variant ( U12A G34A ) has self-cleavage equal to 0.0378

Per the records, this variant ( C48G U69G ) has self-cleavage equal to 0.712

Per the records, this variant ( G5U G55C ) has self-cleavage equal to 0.465

Per the records, this variant ( A16C G28U ) has self-cleavage equal to 0.0437

Per the records, this variant ( G17A U20C ) has self-cleavage equal to 0.268

Per the records, this variant ( C48U C49A ) has self-cleavage equal to 1.05
